target: CUG-BP2 RRM3 K499A (UniProt O95319 416-508, K499A;Y508W)
Sequence (O95319 416-508 K499A/Y508W): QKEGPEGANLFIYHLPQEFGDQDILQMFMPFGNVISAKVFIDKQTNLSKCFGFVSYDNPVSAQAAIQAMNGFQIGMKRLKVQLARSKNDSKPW
test-name: NMR 15N-HSQC titration; 20 mM K phosphate pH 5.8, 10 mM NaCl, 0.1% beta-mercaptoethanol, 25 C (NMR titrations and ITC); hnRNP A1: 10 mM Na phosphate pH 6.5, 10 mM beta-mercaptoethanol
study-conditions: protein: recombinant; tags: His-tag (pET28a)
reported-property: Kd (µM)

{"binder": "UUUAA (ssRNA)", "reported-property": "Kd", "unit-abbreviation": "µM", "endpoint-value": 91}
